# Assayed Target: dopamine transporter (DAT) (Rattus norvegicus)
# Construct: Striata were homogenized in 20 ml of ice-cold sucrose solution; from tissue; host or cells: striatal synaptosomes
# Experiment Summary: [3H]Dopamine uptake assay, striatal synaptosomes
# Assay type: biochemical
# Measurement Conditions: read-out: [3H]DA Uptake (Ki)
Quantity Name: pKi
The meaning of pKi here: minus log10 of the concentration in molar units.

Quick one: pKi for `CN1[C@@H](C[C@@H](O)c2ccccc2)CCC[C@H]1/C=C/c1ccccc1` ?
6.07

###

# Assayed Target: α3β4* nicotinic receptor (Rattus norvegicus, UniProt P04757+P12392)
# Sequence (P04757 26-499): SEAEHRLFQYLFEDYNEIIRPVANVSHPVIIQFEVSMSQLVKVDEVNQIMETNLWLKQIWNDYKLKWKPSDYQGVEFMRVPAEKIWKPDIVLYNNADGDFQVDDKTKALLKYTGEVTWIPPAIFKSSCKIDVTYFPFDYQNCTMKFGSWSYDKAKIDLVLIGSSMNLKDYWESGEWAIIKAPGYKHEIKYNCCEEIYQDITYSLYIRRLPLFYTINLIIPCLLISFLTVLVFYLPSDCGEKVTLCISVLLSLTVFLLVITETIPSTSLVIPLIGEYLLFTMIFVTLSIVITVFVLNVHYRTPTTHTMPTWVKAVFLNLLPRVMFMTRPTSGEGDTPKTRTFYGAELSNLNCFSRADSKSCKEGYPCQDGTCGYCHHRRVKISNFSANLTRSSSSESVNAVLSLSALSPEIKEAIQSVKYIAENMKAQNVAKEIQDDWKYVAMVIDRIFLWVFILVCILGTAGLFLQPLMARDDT
# Sequence (P12392 21-495): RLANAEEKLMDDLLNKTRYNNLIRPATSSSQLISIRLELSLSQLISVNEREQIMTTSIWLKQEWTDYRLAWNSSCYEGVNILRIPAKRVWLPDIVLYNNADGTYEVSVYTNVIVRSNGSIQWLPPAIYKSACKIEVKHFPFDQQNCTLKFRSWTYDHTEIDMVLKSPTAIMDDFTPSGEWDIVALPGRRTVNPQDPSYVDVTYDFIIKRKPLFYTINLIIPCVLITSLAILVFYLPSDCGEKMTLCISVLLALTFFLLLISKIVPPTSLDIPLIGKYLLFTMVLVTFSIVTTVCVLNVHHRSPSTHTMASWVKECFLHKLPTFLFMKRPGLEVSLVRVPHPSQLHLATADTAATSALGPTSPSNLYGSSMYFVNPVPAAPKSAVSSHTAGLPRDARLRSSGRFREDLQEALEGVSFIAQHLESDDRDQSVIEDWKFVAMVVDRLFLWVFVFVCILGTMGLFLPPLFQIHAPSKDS
# Experiment Summary: Nicotine-evoked [3H]NE overflow from superfused hippocampal slices
# Type: cell-based
# Measurement Conditions: Table 1; inhibition of 10 μM S(−)-nicotine
Can you tell me IC50 for the items I'm about to list?
Respond with the bare value in nM.

Need IC50 of CN1[C@H](/C=C/c2ccccc2)CCC[C@H]1/C=C/c1ccccc1 [Compound 15] , thanks.
30

Reported IC50, compound CN1[C@H](/C=C/c2ccccc2)CCC[C@@H]1/C=C/c1ccccc1 [Compound 14] : ____
10

###

# Assayed Target: serotonin transporter (SERT) (Rattus norvegicus)
# Construct: Rat hippocampus was homogenized in 20 mL cold 0.32 M sucrose; from tissue; host or cells: rat hippocampal synaptosomes
# Sequence (P31652 whole entry): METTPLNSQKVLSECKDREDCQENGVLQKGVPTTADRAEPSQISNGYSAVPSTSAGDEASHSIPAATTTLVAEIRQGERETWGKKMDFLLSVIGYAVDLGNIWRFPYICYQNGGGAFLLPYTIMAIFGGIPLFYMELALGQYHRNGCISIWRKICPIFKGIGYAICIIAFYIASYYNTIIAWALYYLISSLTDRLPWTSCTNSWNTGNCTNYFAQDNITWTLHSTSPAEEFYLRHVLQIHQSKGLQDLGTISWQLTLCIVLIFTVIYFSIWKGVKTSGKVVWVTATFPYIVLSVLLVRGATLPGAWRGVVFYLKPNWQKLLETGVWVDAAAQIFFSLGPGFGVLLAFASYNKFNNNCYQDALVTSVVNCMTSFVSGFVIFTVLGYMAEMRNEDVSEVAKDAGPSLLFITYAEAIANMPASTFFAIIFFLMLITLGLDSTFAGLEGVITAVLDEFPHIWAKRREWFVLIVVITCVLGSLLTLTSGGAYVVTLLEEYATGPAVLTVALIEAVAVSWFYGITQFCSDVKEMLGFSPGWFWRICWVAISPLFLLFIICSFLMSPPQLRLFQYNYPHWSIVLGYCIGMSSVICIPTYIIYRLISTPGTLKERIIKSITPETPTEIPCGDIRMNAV
# Experiment Summary: [3H]5-HT uptake assay, hippocampal synaptosomes
# Assay type: biochemical
# Measurement Conditions: Table 1; data of a mixture of compound 10 and 11; read-out: [3H]5-HT Uptake (Ki) SERT
Quantity Name: Ki (nM)
Report only the number, with the unit nM understood.

Please report the recorded Ki for CN1[C@H](CCc2ccccc2)CCC[C@@H]1C[C@@H](O)c1ccccc1 [Compound 10] .
10

###

# Assayed Target: α7* nicotinic receptor (Rattus norvegicus, UniProt Q05941)
# Construct: Whole rat brain (minus cortex, striatum and cerebellum) was homogenized; from tissue; host or cells: rat whole brain membranes (minus cortex, striatum and cerebellum)
# Sequence (Q05941 23-502): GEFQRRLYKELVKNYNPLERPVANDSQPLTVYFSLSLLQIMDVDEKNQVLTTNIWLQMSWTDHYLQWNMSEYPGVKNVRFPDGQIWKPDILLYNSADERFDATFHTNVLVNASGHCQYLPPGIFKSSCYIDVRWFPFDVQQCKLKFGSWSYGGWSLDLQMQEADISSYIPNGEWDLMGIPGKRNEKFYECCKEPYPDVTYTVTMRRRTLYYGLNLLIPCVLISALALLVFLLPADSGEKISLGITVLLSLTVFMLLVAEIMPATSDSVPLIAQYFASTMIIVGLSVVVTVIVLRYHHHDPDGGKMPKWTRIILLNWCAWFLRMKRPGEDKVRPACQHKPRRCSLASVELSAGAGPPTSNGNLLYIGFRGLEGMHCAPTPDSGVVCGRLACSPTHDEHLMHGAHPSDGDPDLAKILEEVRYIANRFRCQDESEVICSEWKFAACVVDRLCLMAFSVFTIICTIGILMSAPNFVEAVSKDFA
# Experiment Summary: [3H]Methyllycaconitine ([3H]MLA) binding assay
pKi: −log10 of the molar value.
Quantity Name: pKi

GET /values?readout=pKi&system=α7* nicotinic receptor (Rattus norvegicus, UniProt Q05941)&item= `CCCN1[C@@H](CCc2ccccc2)CCC[C@H]1CCc1ccccc1`
< 4.00

# query: pKi | item c1ccc(CC[C@H]2CCC[C@@H](CCc3ccccc3)N2)cc1 [Compound 25, 2,6-cis-diphenethylpiperidine] | system: α7* nicotinic receptor (Rattus norvegicus, UniProt Q05941)
< 4.00

Observed pKi on α7* nicotinic receptor (Rattus norvegicus, UniProt Q05941) for `CN1[C@@H](C[C@@H](O)c2ccccc2)CCC[C@H]1/C=C/c1ccccc1` , please.
5.80

Give the reported pKi for `CN1[C@H](C[C@H](O)c2ccccc2)CCC[C@@H]1/C=C/c1ccccc1` (system: α7* nicotinic receptor (Rattus norvegicus, UniProt Q05941)).
< 4.00

Requested read-out pKi, target or system α7* nicotinic receptor (Rattus norvegicus, UniProt Q05941), entry CCN1[C@@H](CCc2ccccc2)CCC[C@H]1CCc1ccccc1 [Compound 26, N-ethyl-2,6-cis-diphenethylpiperidine]
< 4.00

###

# Assayed Target: α6β2* nicotinic receptor (Rattus norvegicus, UniProt P12390+P43143)
# Sequence (P43143 31-493): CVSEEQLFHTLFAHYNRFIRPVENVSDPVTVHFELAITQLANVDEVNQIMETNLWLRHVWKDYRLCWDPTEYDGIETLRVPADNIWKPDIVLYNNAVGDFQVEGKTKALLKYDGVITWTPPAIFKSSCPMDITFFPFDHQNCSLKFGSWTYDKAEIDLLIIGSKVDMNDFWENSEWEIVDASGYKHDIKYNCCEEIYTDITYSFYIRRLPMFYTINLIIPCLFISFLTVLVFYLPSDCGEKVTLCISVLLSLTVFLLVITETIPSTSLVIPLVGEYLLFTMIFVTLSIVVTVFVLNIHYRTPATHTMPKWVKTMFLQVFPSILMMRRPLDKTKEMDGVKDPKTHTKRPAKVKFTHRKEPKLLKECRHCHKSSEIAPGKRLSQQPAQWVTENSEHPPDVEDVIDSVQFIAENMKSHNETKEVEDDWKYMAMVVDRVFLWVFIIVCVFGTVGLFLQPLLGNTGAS
# Sequence (P12390 25-500): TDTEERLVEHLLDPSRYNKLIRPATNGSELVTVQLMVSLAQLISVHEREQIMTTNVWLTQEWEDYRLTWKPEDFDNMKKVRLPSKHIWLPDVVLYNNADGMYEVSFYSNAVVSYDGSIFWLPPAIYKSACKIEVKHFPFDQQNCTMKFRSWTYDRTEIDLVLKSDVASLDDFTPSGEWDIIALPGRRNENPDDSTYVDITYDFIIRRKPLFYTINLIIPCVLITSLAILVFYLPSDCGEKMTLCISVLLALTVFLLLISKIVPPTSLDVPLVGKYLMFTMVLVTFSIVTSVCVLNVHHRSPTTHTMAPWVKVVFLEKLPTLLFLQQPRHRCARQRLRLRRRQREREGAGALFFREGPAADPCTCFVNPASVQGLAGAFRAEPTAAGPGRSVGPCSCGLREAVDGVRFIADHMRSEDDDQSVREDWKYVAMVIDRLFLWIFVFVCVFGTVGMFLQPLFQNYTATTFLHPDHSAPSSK
# Experiment Summary: Nicotine-evoked [3H]DA overflow from superfused striatal slices
# Assay type: cell-based
# Measurement Conditions: Inhibition of Nicotine-Evoked [3H]DA Overflow (IC50) α6β2*
Quantity Name: pIC50
Keep in mind that pIC50 stands for -log10 of concentration in molar terms.

What pIC50 value was documented for this compound, `CN1[C@H](/C=C/c2ccccc2)CCC[C@@H]1/C=C/c1ccccc1` ?
7.52

###

Exercise: state measured pKi for each of the compounds provided.
# Assayed Target: dopamine transporter (DAT) (Rattus norvegicus)
# Construct: Striata were homogenized in 20 ml of ice-cold sucrose solution; from tissue; host or cells: striatal synaptosomes
# Experiment Summary: [3H]Dopamine uptake assay, striatal synaptosomes
# Type: biochemical
# Measurement Conditions: Table 1; read-out: [3H]DA Uptake (Ki)
Friendly reminder that pKi comes from taking -log10 of the concentration in mol/L.

Param readout= pKi; system= dopamine transporter (DAT) (Rattus norvegicus); entry= `Cc1ccc(S(=O)(=O)O[C@@H](C[C@H]2CCC[C@@H](CC(=O)c3ccccc3)N2C)c2ccccc2)cc1` ; returns value.
4.54

For dopamine transporter (DAT) (Rattus norvegicus), provide pKi of `CN1[C@H](/C=C/c2ccccc2)CCC[C@@H]1/C=C/c1ccccc1` please.
6.24

# query: pKi | item CN1C(CC(=O)c2ccccc2)CCCC1CC(O)c1ccccc1 (centres unmarked) [Compound 1, reference compound] | system: dopamine transporter (DAT) (Rattus norvegicus)
4.53

dopamine transporter (DAT) (Rattus norvegicus) / pKi / c1ccc(CC[C@H]2CCC[C@@H](CCc3ccccc3)N2)cc1 [Compound 25, 2,6-cis-diphenethylpiperidine] : value?
5.99

Requested read-out pKi, target or system dopamine transporter (DAT) (Rattus norvegicus), entry `CN1[C@@H](C[C@@H](O)c2ccccc2)CCC[C@H]1C[C@H](O)c1ccccc1`
4.48

Find the measured pKi: item `CN1[C@@H](CC(=O)c2ccccc2)CCC[C@H]1CC(=O)c1ccccc1` , target or system dopamine transporter (DAT) (Rattus norvegicus).
4.80

Which measured pKi belongs to `CN1[C@H](/C=C/c2ccccc2)CCC[C@H]1/C=C/c1ccccc1` , tested on dopamine transporter (DAT) (Rattus norvegicus)?
6.59

GET /values?readout=pKi&system=dopamine transporter (DAT) (Rattus norvegicus)&item= `CN1[C@@H](CC(=O)c2ccccc2)CCC[C@H]1/C=C/c1ccccc1`
5.76

###

# Assayed Target: serotonin transporter (SERT) (Rattus norvegicus)
# Construct: Rat hippocampus was homogenized in 20 mL cold 0.32 M sucrose; from tissue; host or cells: rat hippocampal synaptosomes
# Experiment Summary: [3H]5-HT uptake assay, hippocampal synaptosomes
# Assay type: biochemical
# Measurement Conditions: Table 1; read-out: [3H]5-HT Uptake (Ki) SERT
Consider the following molecules; for each one, report its Ki.
Output spec: scalar in nM, unitless text.

Field request: Ki | item: CN1[C@@H](CC(=O)c2ccccc2)CCC[C@H]1/C=C/c1ccccc1 [Compound 5]
1860

Returns the measured Ki for the input molecule. Input: CN1[C@H](/C=C/c2ccccc2)CCC[C@H]1/C=C/c1ccccc1 [Compound 15]
380

Could you tell me which Ki is on file for CN1[C@@H](C[C@@H](O)c2ccccc2)CCC[C@H]1C[C@H](O)c1ccccc1 [Compound 4, lobelanidine] ?
25600

Look up Ki: c1ccc(CC[C@H]2CCC[C@@H](CCc3ccccc3)N2)cc1 [Compound 25, 2,6-cis-diphenethylpiperidine]
2510

Which Ki value is on record for CN1C(CC(=O)c2ccccc2)CCCC1CC(O)c1ccccc1 (centres unmarked) [Compound 1, reference compound] ?
25700

Can you look up the measured Ki of CN1[C@H](/C=C/c2ccccc2)CCC[C@@H]1/C=C/c1ccccc1 [Compound 14] for me?
8940

Any idea what Ki was measured for CN1[C@@H](CC(=O)c2ccccc2)CCC[C@H]1CC(=O)c1ccccc1 [Compound 3] ?
3310

Fill in: Ki of Cc1ccc(S(=O)(=O)O[C@@H](C[C@H]2CCC[C@@H](CC(=O)c3ccccc3)N2C)c2ccccc2)cc1 [Compound 2] is ___
1670

###

Assignment: determine reported Ki for the given compounds.
# Assayed Target: dopamine transporter (DAT) (Rattus norvegicus, UniProt P23977)
# Construct: Striata were homogenized in 20 ml of ice-cold sucrose solution; from tissue; host or cells: striatal synaptosomes
# Sequence (P23977 whole entry): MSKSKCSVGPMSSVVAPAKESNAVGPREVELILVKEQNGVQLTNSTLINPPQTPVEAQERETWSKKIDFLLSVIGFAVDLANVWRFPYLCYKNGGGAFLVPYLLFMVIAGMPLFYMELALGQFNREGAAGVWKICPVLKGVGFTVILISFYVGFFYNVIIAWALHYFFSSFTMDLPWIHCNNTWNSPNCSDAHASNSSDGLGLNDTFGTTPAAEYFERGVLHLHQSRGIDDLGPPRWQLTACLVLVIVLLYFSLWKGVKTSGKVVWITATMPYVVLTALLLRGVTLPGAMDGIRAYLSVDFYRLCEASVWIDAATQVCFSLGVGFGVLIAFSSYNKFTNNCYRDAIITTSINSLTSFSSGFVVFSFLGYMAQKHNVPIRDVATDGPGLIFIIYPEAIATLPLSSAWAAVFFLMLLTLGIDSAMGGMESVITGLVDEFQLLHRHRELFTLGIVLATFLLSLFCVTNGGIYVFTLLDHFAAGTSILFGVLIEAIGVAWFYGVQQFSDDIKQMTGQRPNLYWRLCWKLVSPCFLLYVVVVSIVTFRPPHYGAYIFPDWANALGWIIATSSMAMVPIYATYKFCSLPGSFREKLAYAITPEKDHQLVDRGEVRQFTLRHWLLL
# Experiment Summary: [3H]Dopamine uptake assay, striatal synaptosomes
# Assay type: biochemical
# Measurement Conditions: Ki [3H]-Dopamine Uptake Assay
The reply should be a number in µM, with the unit left off.

Entry under review: CN1[C@H](CCc2ccccc2)CCC[C@@H]1CC(O)c1ccccc1 (mixture of isomers) [Compound 60] . Reported Ki?
8.9

Give its Ki value. Item: CN1[C@@H](CCc2ccccc2)CCC[C@H]1CCc1ccccc1 [Compound 17]
3

###

# Assayed Target: α6β2* nicotinic receptor (Rattus norvegicus, UniProt P12390+P43143)
# Experiment Summary: Nicotine-evoked [3H]DA overflow from superfused striatal slices
# Assay type: cell-based
# Measurement Conditions: read-out: inhibition of nicotine-evoked [3H]DA overflow IC50
Quantity Name: IC50 (nM)
API: value field is a number in nM; no unit string.

Recorded IC50 for CN1[C@H](CCc2ccccc2)CCC[C@H]1CCc1ccccc1 [Compound 18] , please?
3

###

# Assayed Target: α7* nicotinic receptor (Rattus norvegicus)
# Construct: Whole rat brain (minus cortex, striatum and cerebellum) was homogenized; from tissue; host or cells: rat whole brain membranes (minus cortex, striatum and cerebellum)
# Experiment Summary: [3H]Methyllycaconitine ([3H]MLA) binding assay
# Measurement Conditions: Table 1; rat whole brain membranes; read-out: [3H]MLA Binding (Ki) α7*
Quantity Name: Ki (µM)
Just the number please, in µM, no unit attached.

If you can, please state the reported Ki value of `COc1ccccc1CC[C@H]1CCC[C@@H](CCc2ccccc2OC)N1C` .
26

Reported Ki for `CN1[C@@H](C[C@@H](O)c2ccccc2)CCC[C@H]1C[C@H](O)c1ccccc1` : what is it?
3.29
